SYSTEM_NAME: SF9 affinity purified rat farnesyl protein transferase (Rattus norvegicus, UniProt Q02293+Q04631)
Construct: made in house; host or cells: Sf9 insect cells (baculovirus system inferred from b7)
PROTOCOL_TEXT: PFT inhibitory activity (radiolabeled farnesyl pyrophosphate, streptavidin bead assay)
Format: biochemical
MEASUREMENT_CONDITIONS: HEPES buffer pH 7.4 containing 5 mM potassium phosphate; read-out: IC50 (μM) 5 mM K3 PO4 -2
RESULT_TYPE: IC50 (µM)

- MOLECULE: "CC(C)(CNC(=O)CN(Cc1ccccc1OCc1ccncc1)C(=O)[C@H](Cc1c[nH]cn1)NC(=O)OCc1ccccc1)c1ccccc1"
  UNIT_NAME: "µM"
  IC50: 0.016

(1) CC(CNC(=O)CN(Cc1cccc(Cl)c1)C(=O)[C@H](Cc1c[nH]cn1)NC(=O)OCc1ccccc1)c1ccccc1 (stereo partly drawn)
(2) CCC(CNC(=O)CN(Cc1ccc(OCc2ccccc2)cc1)C(=O)[C@H](Cc1c[nH]cn1)NC(=O)OCc1ccccc1)c1ccccc1 (stereo partly drawn)
Data request: For 1 and 2 , which recorded IC50 is lower? Returns: label corresponding to the selected item.
Data returned: 2
